- Experimental Details: The drug is tested on Coprococcus comes strain: ATCC27758 for biotransformation. The drug concentrations were measured before and after a 12-h incubation by liquid-chromatography-coupled mass spectrometry (LC–MS)
- Assay type: ADME
- Parameters: dose 2 uM, timepoint 0 vs 12 hours
- Conditions Used: 2 µM
Measured Parameter: Bacterial Biotransformation

Field: example entries. Status: answers known.
Molecule: CCOC(=O)[C@H](CCc1ccccc1)N[C@H]1CCc2ccccc2N(CC(=O)O)C1=O
Bacterial Biotransformation: Compound NOT metabolized
//
Molecule: COc1cc2nc(N3CCN(C(=O)c4ccco4)CC3)nc(N)c2cc1OC
Bacterial Biotransformation: Compound NOT metabolized
//
Molecule: O=C(O)c1cc(/N=N/c2ccc(S(=O)(=O)Nc3ccccn3)cc2)ccc1O
Bacterial Biotransformation: Compound metabolized
//
Molecule: C#C[C@]1(O)CC[C@H]2[C@@H]3CCC4=CC(=O)CC[C@@H]4[C@H]3CC[C@@]21CC
Bacterial Biotransformation: Compound NOT metabolized
//
Molecule: COc1ccc([C@@H]2Sc3ccccc3N(CCN(C)C)C(=O)[C@@H]2OC(C)=O)cc1
Bacterial Biotransformation: Compound metabolized

Now take the following molecule into account.
In plain terms, COc1ccc(CCN(C)CCCC(C#N)(c2ccc(OC)c(OC)c2)C(C)C)cc1OC (centres undefined) has a documented Bacterial Biotransformation of Compound NOT metabolized

###

- Experimental Details: The drug is tested on Bacteroides caccae strain: ATCC43185 for biotransformation. The drug concentrations were measured before and after a 12-h incubation by liquid-chromatography-coupled mass spectrometry (LC–MS)
- Conditions Used: 2 µM
Measured Parameter: Bacterial Biotransformation

Molecule: OCCN1CCN(CCCN2c3ccccc3Sc3ccc(C(F)(F)F)cc32)CC1
Measured Parameter: Bacterial Biotransformation
Reported Measurement: Compound metabolized

Molecule: COc1ccc2[nH]c([S+]([O-])Cc3ncc(C)c(OC)c3C)nc2n1 (centres undefined)
Measured Parameter: Bacterial Biotransformation
Reported Measurement: Compound metabolized

Molecule: CC(C)c1nc(CN(C)C(=O)N[C@H](C(=O)N[C@@H](Cc2ccccc2)C[C@H](O)[C@H](Cc2ccccc2)NC(=O)OCc2cncs2)C(C)C)cs1
Measured Parameter: Bacterial Biotransformation
Reported Measurement: Compound NOT metabolized

Molecule: CC(C)N(CCC(C(N)=O)(c1ccccc1)c1ccccn1)C(C)C.O=P(O)(O)O (centres undefined) [DISOPYRAMIDE PHOSPHATE]
Measured Parameter: Bacterial Biotransformation
Reported Measurement: Compound NOT metabolized

Molecule: CCC(C)n1ncn(-c2ccc(N3CCN(c4ccc(OCC5COC(Cn6cncn6)(c6ccc(Cl)cc6Cl)O5)cc4)CC3)cc2)c1=O (centres undefined)
Measured Parameter: Bacterial Biotransformation
Reported Measurement: Compound NOT metabolized

In plain terms, `CN(C)CCC=C1c2ccccc2C=Cc2ccccc21` has a documented Bacterial Biotransformation of Compound NOT metabolized

In plain terms, `CN1C(C(=O)Nc2ccccn2)=C(O)c2sccc2S1(=O)=O` has a documented Bacterial Biotransformation of Compound NOT metabolized

In plain terms, `CC(C)(C)N.CCC[C@H](N[C@@H](C)C(=O)N1[C@H](C(=O)O)C[C@@H]2CCCC[C@@H]21)C(=O)OCC` has a documented Bacterial Biotransformation of Compound NOT metabolized

###

- Experimental Details: The drug is tested on Clostridium asparagiforme strain: DSM15981 for biotransformation. The drug concentrations were measured before and after a 12-h incubation by liquid-chromatography-coupled mass spectrometry (LC–MS)
- Type: ADME
- Design: dose 2 uM, timepoint 0 vs 12 hours
- Conditions Used: enterocloster asparagiformis, 2 µM
Measured Parameter: Bacterial Biotransformation

Compound: C=CCN1CC[C@]23c4c5ccc(O)c4O[C@H]2C(=O)CC[C@@]3(O)[C@H]1C5
Reported Measurement: Compound NOT metabolized
//
Compound: CC(C)c1nc(CN(C)C(=O)N[C@H](C(=O)N[C@@H](Cc2ccccc2)C[C@H](O)[C@H](Cc2ccccc2)NC(=O)OCc2cncs2)C(C)C)cs1
Reported Measurement: Compound NOT metabolized
//
Compound: O=P(O)(O)O.c1ccc(CN(CC2=NCCN2)c2ccccc2)cc1 [ANTAZOLINE PHOSPHATE]
Reported Measurement: Compound NOT metabolized
